All values here come from ChEMBL document CHEMBL1125278.

Kindly supply the reported SVT values for the records listed here.
# Tested on: Mus musculus
# Test Description: Antihypoxic effect tested by the ratio of survival time (SVT) of test mice to that of control group, dosed orally 30 mg/kg
# Assay type: functional
# Settings: route oral
One number for each entry, in %.

COc1cccc(N2CCN(CC(=O)NC3c4c(O)ccc(C)c4CC3(C)C)CC2)c1 (centres undefined) : 97.2

Hello, I would appreciate it if you could give SVT for each entry below.
1. Cc1cc(C)c2c(c1O)C(NC(=O)CN1CCN(C)CC1)C(C)(C)C2 (centres undefined)
2. COc1cccc(N2CCN(CC(=O)NC3CCc4c(C)cc(C)c(O)c43)CC2)c1 (centres undefined)
3. Cc1cc(C)c2c(c1O)C(N)C(c1ccccc1)C2 (centres undefined)
4. COc1cccc(N2CCN(CC(=O)NC3c4c(O)c(C)cc(C)c4CC3Cc3ccccc3)CC2)c1 (centres undefined)
5. Cc1cc(C)c2c(c1O)C(NC(=O)CN1CCN(c3cccc(C(F)(F)F)c3)CC1)C(C)(C)C2 (centres undefined)

1: 86.4; 2: 77.2; 3: 114.1; 4: 123.1; 5: 107.8

Hello, I would appreciate it if you could give SVT for each entry below.
1. Cc1cc(C)c2c(c1O)C(NC(=O)CN1CCN(c3cc(Cl)cc(Cl)c3)CC1)C(C)(C)C2 (centres undefined)
2. CCC(C)c1cc(C)c2c(c1O)C(NC(=O)CN1CCN(c3cccc(Cl)c3)CC1)CC2 (centres undefined)
3. Cc1cc(C)c2c(c1O)C(NC(=O)CN1CCN(c3cc(Cl)ccc3Cl)CC1)C(C)(C)C2 (centres undefined)

[106.4, 144.5, 100]
